Reference for the values: patent US11530186B2

TEST TARGET: β-catenin/Tcf protein-protein interaction (Homo sapiens, UniProt P35222)
Construct: Wild-type β-catenin (residues 138-781) were cloned into a pET-28b vector; 6×histidine (C); made in house; host or cells: E. coli BL21 DE3
Sequence (P35222 138-781): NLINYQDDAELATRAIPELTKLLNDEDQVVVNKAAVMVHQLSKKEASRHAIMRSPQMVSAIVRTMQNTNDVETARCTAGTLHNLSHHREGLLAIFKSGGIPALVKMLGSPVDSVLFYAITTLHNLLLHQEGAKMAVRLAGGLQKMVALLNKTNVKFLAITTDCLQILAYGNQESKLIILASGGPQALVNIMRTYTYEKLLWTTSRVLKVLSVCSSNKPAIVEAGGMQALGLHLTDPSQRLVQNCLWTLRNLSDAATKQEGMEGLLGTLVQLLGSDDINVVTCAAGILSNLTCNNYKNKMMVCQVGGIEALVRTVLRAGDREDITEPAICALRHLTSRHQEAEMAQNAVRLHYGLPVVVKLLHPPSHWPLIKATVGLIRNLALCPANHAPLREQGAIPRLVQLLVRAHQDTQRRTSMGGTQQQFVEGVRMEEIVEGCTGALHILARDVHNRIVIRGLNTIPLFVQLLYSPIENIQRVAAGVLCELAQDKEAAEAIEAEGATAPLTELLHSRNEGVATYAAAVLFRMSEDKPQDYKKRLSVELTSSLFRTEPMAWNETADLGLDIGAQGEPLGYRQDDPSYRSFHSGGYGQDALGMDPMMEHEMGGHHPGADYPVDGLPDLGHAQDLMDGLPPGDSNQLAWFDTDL
PROTOCOL: FP competitive inhibition assay
Format: binding
MEASUREMENT PARAMETERS: Assay 2, mean ± SD (n = 3), read-out: Ki ± SD, Assay 2
PARAMETER MEASURED: pKi
Schema: pKi number; meaning minus log10 of the concentration expressed in molar units.

Cc1ccc(CCc2c(CCc3nc4ccccc4[nH]3)n(CCC(=O)O)c3ccc(C(=O)O)cc23)cc1 [Compound 42] = 5.70
O=C(O)c1ccc2c(c1)c(CCc1ccccc1)c(CCc1nc3ccccc3s1)n2CCc1nn[nH]n1 [Compound 25] = 5.39

Let's switch to this compound now.
Challenge: Give a short answer stating reported pKi for O=C(NCc1ccc(Cl)cc1)c1ccc2c(c1)c(CCc1ccc(F)cc1)c(CCc1nc3ccccc3s1)n2CCc1nn[nH]n1 [Compound 45] .
Response given: 6.15
